Recorded values, source patent US10105367B2.

# ASSAY SYSTEM: human PDE1B (Homo sapiens (Human))
# ASSAY METHOD TEXT: PDE1B inhibitory assay (IMAP TR-FRET)
# RUN PARAMETERS: negative log of half-maximal molar inhibitory concentration; 200 nM FAM-cAMP, Calmodulin, CaCl2
Recorded PDE1B pIC50 for the following compounds
READOUT TYPE: PDE1B pIC50

compound="COc1ccc(Cn2c(=O)n3ncnc3c3cc(CN4CCN5C(=O)OCC5C4)cnc32)cc1 (stereo not shown)" reported_result=>7
compound=COc1ccc(Cn2c(=O)n3ncnc3c3cc(CN4C[C@H](C)OC[C@@H]4C)cnc32)cc1 reported_result=>7
compound="COc1ccc(Cn2c(=O)n3ncnc3c3c4c(sc32)N(CC2CCOC2)CCC4)cc1 (stereo not shown)" reported_result=>7
compound=Cc1csc2c1c1ncnn1c(=O)n2Cc1ccc(-c2ccccc2)cc1 reported_result=<5

----------
Recorded below: pIC50, system human PDE1B (Homo sapiens (Human), UniProt Q01064).
pIC50: −log10 of the molar value.
READOUT TYPE: pIC50

compound=COc1ccc(Cn2c(=O)n3ncnc3c3cc(CN4CCN(C)CC4)sc32)cc1 readout_type=pIC50 reported_result="6.00 to 7.00"
compound=COc1ccc(Cn2c(=O)n3ncnc3c3cc(CN4CCN(C(=O)C(F)(F)F)CC4)cnc32)cc1 readout_type=pIC50 reported_result="6.00 to 7.00"
compound=COc1ccc(Cn2c(=O)n3ncnc3c3cc(Br)cnc32)cc1 readout_type=pIC50 reported_result="6.00 to 7.00"
compound=O=c1n(Cc2ccccc2)c2sccc2c2ncnn12 readout_type=pIC50 reported_result="5.00 to 6.00"
compound=O=c1n(Cc2cccc(Cl)c2)c2sccc2c2ncnn12 readout_type=pIC50 reported_result="5.00 to 6.00"
compound=C=Cc1cnc2c(c1)c1ncnn1c(=O)n2Cc1ccc(OC)cc1 readout_type=pIC50 reported_result="6.00 to 7.00"
compound=COc1ccc(Cn2c(=O)n3ncnc3c3cc(CN4CCCN(C)CC4)cnc32)cc1 readout_type=pIC50 reported_result="5.00 to 6.00"
compound=O=c1n(Cc2ccccc2)c2sc3c(c2c2ncnn12)CCCC3 readout_type=pIC50 reported_result="6.00 to 7.00"
compound="COc1ccc(Cn2c(=O)n3ncnc3c3cc(CN4CCN(CC5CCOC5)CC4)cnc32)cc1 (stereo not drawn)" readout_type=pIC50 reported_result="5.00 to 6.00"
compound=COc1ccc(Cn2c(=O)n3ncnc3c3cc(CN4CCNCC4)cnc32)cc1 readout_type=pIC50 reported_result="5.00 to 6.00"
compound=COc1ccc(Cn2c(=O)n3ncnc3c3ccsc32)cc1 readout_type=pIC50 reported_result="6.00 to 7.00"
compound=COCCN1CCN(Cc2cnc3c(c2)c2ncnn2c(=O)n3Cc2ccc(OC)cc2)CC1 readout_type=pIC50 reported_result="5.00 to 6.00"
compound=O=c1n(Cc2ccc(F)cc2)c2sc3c(c2c2ncnn12)CCOC3 readout_type=pIC50 reported_result="5.00 to 6.00"
compound=O=c1n(Cc2ccccc2Cl)c2sc3c(c2c2ncnn12)CCCC3 readout_type=pIC50 reported_result="5.00 to 6.00"
compound=COc1ccc(Cn2c(=O)n3ncnc3c3cc(CN4CCOCC4)cnc32)cc1 readout_type=pIC50 reported_result="6.00 to 7.00"
compound=Cc1cc2c(s1)n(Cc1ccccc1Cl)c(=O)n1ncnc21 readout_type=pIC50 reported_result="5.00 to 6.00"
compound=COc1ccc(Cn2c(=O)n3ncnc3c3ccc(CNCC4(C)COC4)nc32)cc1 readout_type=pIC50 reported_result="5.00 to 6.00"
compound=CCOc1ccc(Cn2c(=O)n3ncnc3c3c4c(sc32)COCC4)cc1 readout_type=pIC50 reported_result="5.00 to 6.00"
compound=COc1ccc(Cn2c(=O)n3ncnc3c3cc(CN4C[C@@H](C)O[C@@H](C)C4)cnc32)c(F)c1F readout_type=pIC50 reported_result="6.00 to 7.00"
compound=O=c1n(Cc2ccc(Cl)cc2)c2sc3c(c2c2ncnn12)CCOC3 readout_type=pIC50 reported_result="6.00 to 7.00"
compound=Cc1cc2c(s1)n(Cc1cccc(Cl)c1)c(=O)n1ncnc21 readout_type=pIC50 reported_result="5.00 to 6.00"
compound=COc1ccc(Cn2c(=O)n3ncnc3c3ccc(C(OC)OC)nc32)cc1 readout_type=pIC50 reported_result="5.00 to 6.00"
compound=COc1ccc(Cn2c(=O)n3ncnc3c3cc(N4C[C@@H](C)O[C@@H](C)C4)cnc32)cc1 readout_type=pIC50 reported_result="6.00 to 7.00"
compound=C[C@@H]1CN(Cc2cnc3c(c2)c2ncnn2c(=O)n3Cc2cccc(I)c2)C[C@H](C)O1 readout_type=pIC50 reported_result="6.00 to 7.00"

----------
# ASSAY SYSTEM: UniProtKB Q01064
Reported IC50 values follow for various compounds
READOUT TYPE: IC50

compound_structure_string=C[C@@H]1CN(Cc2cnc3c(c2)c2ncnn2c(=O)n3Cc2ccc(Cl)c(Cl)c2)C[C@H](C)O1 readout_type=IC50 reported_result="100 to 1000 nM"
compound_structure_string=COc1ccc(Cn2c(=O)n3ncnc3c3ncc(CN4CCN(C)CC4)cc32)cc1 readout_type=IC50 reported_result="1000 to 10000 nM"
compound_structure_string=COc1ccc(Cn2c(=O)n3ncnc3c3cc(CN4CCCOCC4)cnc32)cc1 readout_type=IC50 reported_result="100 to 1000 nM"
compound_structure_string=CC(C)CCc1cc2c(s1)n(Cc1ccc(Cl)cc1)c(=O)n1ncnc21 readout_type=IC50 reported_result="100 to 1000 nM"
compound_structure_string=COCCN(Cc1cnc2c(c1)c1ncnn1c(=O)n2Cc1ccc(OC)cc1)C(C)C readout_type=IC50 reported_result="100 to 1000 nM"
compound_structure_string=COc1ccc(Cn2c(=O)n3ncnc3c3cc(-n4nc(C)ccc4=O)cnc32)cc1 readout_type=IC50 reported_result="100 to 1000 nM"
compound_structure_string=COc1ccc(Cn2c(=O)n3ncnc3c3c4c(sc32)N(C(=O)c2ccccc2)CCC4)cc1OC readout_type=IC50 reported_result="1000 to 10000 nM"
compound_structure_string=COCOCc1cnc2c(c1)c1ncnn1c(=O)n2Cc1ccc(OC)cc1 readout_type=IC50 reported_result="100 to 1000 nM"
